- tested-target: GLS1 (purified recombinant human GAC) (Homo sapiens)
- Sequence (O94925 55-598 isoform O94925-3 limits assumed): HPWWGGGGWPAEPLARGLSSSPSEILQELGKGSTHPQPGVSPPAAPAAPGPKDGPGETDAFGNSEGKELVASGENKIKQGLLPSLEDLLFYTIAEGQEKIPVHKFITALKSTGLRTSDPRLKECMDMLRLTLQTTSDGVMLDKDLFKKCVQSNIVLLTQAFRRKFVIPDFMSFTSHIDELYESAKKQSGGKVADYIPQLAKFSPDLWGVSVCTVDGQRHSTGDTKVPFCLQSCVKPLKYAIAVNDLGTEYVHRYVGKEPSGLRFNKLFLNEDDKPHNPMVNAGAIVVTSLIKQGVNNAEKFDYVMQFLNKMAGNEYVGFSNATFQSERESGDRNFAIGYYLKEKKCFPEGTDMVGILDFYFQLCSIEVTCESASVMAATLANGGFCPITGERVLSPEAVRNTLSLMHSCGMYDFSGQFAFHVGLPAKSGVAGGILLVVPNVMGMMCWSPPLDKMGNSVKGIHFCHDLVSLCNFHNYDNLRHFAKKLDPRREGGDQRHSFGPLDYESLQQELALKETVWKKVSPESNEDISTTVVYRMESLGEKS
- assay-name: GLS1 enzymatic activity assay (dual-coupled, Amplex UltraRed/resorufin)
pIC50: −log10 of the molar value.
metric-name: pIC50

Study these solved cases before continuing.
INSERT INTO measurements (compound, tested_target, result) VALUES
  ('O=C(CN1CCS(=O)(=O)CC1)Nc1ccn(CCC(F)Cn2cc(C(=O)NCc3cccc(OC(F)(F)F)c3)nn2)c(=O)c1 (stereo not shown) [Example 231]', 'GLS1 (purified recombinant human GAC) (Homo sapiens)', '6.30 to 7.00'),
  ('O=C(Nc1ccn(CCCCc2nnc(C(=O)NCCO)s2)c(=O)n1)OCc1ccccc1 [Example 119]', 'GLS1 (purified recombinant human GAC) (Homo sapiens)', '5.30 to 6.30'),
  ('O=C(CC1CCCC1)Nc1ccn(CCCCn2cc(C(=O)NCc3cccc(C(F)(F)F)c3)nn2)c(=O)c1 [Example 153]', 'GLS1 (purified recombinant human GAC) (Homo sapiens)', '> 7.00'),
  ('O=C(Cc1ccccc1)Nc1ccn(CCCCn2cc(C(=O)NCc3cccc(OC(F)(F)F)c3)nn2)c(=O)c1 [Example 33]', 'GLS1 (purified recombinant human GAC) (Homo sapiens)', '> 7.00');

Notebook entry, GLS1 (purified recombinant human GAC) (Homo sapiens) assay: pIC50 of O=C(CN1CCC(F)C1)Nc1ccn(CCC(F)Cn2cc(C(=O)NCc3cccc(OC(F)(F)F)c3)nn2)c(=O)c1 (stereo not shown) [Example 227] = ?
> 7.00

Find pIC50 (GLS1 (purified recombinant human GAC) (Homo sapiens)) for the entry N#CCC(=O)Nc1ccn(CCC(F)Cn2cc(C(=O)NCc3cccc(OC(F)(F)F)c3)nn2)c(=O)c1 (stereo not shown) [Example 188]
5.30 to 6.30

Kindly state the measured pIC50 obtained for O=C(Cc1nccs1)Nc1ccn(CCC(F)Cn2cc(C(=O)NCc3cccc(OC(F)(F)F)c3)nn2)c(=O)c1 (stereo not shown) [Example 252] with GLS1 (purified recombinant human GAC) (Homo sapiens).
> 7.00

====

Reported pIC50 values are given for each entry in this list.
- tested-target: GLS1 (purified recombinant human GAC) (Homo sapiens)
- assay-name: GLS1 enzymatic activity assay (dual-coupled, Amplex UltraRed/resorufin)
pIC50: −log10 of the molar value.

INSERT INTO assay_data (molecule, metric_name, result) VALUES
  ('Nc1nnc(CCCCn2ccc(NC(=O)Cc3ccccc3)cc2=O)s1', 'pIC50', '5.30 to 6.30');

What does the record list as pIC50 for `O=C(Cc1ccccc1)Nc1ccc(CCCCn2ccc(NC(=O)[C@@H](O)c3ccccc3)nc2=O)nn1` ?
> 7.00

// lookup pIC50 for CC(C(=O)Nc1ccn(CCC(F)Cn2cc(C(=O)NCc3cc(C(F)(F)F)ccn3)nn2)c(=O)c1F)N1CCCCC1 (stereo not shown)
6.30 to 7.00
